system: HL-60; assay: NCI tumour cell line growth inhibition, 48 h
Active and inactive are the calls of the source. Rule as the data show it: active = GI50 up to about 1.1 µM and inactive = higher.
recorded.metric: GI50

Recorded results for 3 compounds are shown here.
compound	test.result
C/N=C(\NC(=S)N(C)C)N(C)C	> 100 µM (inactive)
O=C(Nc1nc(C23CC4CC(CC(C4)C2)C3)cs1)c1cc2c(ccc3ccccc32)oc1=O	> 100 µM (inactive)
CCN(CC)CCCOC(=O)/C=C/c1c(C)[nH]c(=O)[nH]c1=O	> 625 µM (inactive)

Task: Would you kindly share the measured GI50 for Cc1cc2c3ccccc3n3c2c2c1OC1(C)CCC(C2C1)C3(C)C (stereo unspecified) ?
Result: > 25 µM (inactive)

Task: What value of GI50 has been reported for the following compound? COc1cc(O)c(Cc2ccccc2O)c(O)c1C(=O)CCc1ccccc1 [UVARETIN]
Result: 4.43 µM (inactive)

Task: Given C=CCOC(C)(C)C1=CCC(C)CC1 (stereo unspecified) , state its recorded GI50.
Result: > 100 µM (inactive)

* * *

# key: entry, value: GI50
tested on: OVCAR-4; assay: NCI tumour cell line growth inhibition, 48 h
The source made the active and inactive calls. Rule as the data show it: active = GI50 up to about 1.1 µM and inactive = higher.

compound	GI50
Cc1cc(/N=N/c2c(O)ccc3ccccc23)ccc1/N=N/c1cccc([N+](C)(C)C)c1	> 27.1 µM (inactive)

Task: Entry NC(CSCc1ccccc1)C(=O)O (stereo not drawn) : reported GI50 = ?
Result: > 100 µM (inactive)

Task: Fill blank: measured GI50 of the compound CO/N=C1/c2sccc2[C@H](NC(=O)C(Cc2ccccc2)NC(=O)OC(C)(C)C)[C@@H]1O (stereo partly drawn) is ____.
Result: 45.6 µM (inactive)

* * *

test system: NCI/ADR-RES; assay: NCI tumour cell line growth inhibition, 48 h
Calls of active or inactive are those of the source. Rule as the data show it: active = GI50 up to about 1.1 µM and inactive = higher. Starred links: 1 amine or outer side, 2 acyl side, 3 side chain; linkers in the order of their positions; H or OH if unused. Positions of bridges follow the written chain, without caps; N, C: chain ends. Non-standard residues stand in square brackets, D forms with d. Residues, ends and D or L forms follow the SMILES beside them. ξ: configuration not given here. X37 = CC[C@H](C)[C@@H](N[*:1])[C@@H](O)CC(=O)O[C@H](C(=O)[C@H](C)C(=O)[*:2])C(C)C; NMeY = CN[C@@H](Cc1ccc(O)cc1)C(=O)O; dNMeL = CN[C@H](CC(C)C)C(=O)O; ξΔPro = O=C(O)C1C=CCN1
I would appreciate it if you answered using one of these outcomes: yes for active, no for inactive

compound	label
O=C(NCCCCCCNC(=O)n1cc(F)c(=O)[nH]c1=O)NCCCOCCOCCOCCOCCOCCOCCOCCOCCOCCOCCOCCOCCOCCOCCOCCOCCOCCOCCOCCOCCOCCCNC(=O)C(O)C(O)C(OC1OC(CO)C(O)C(O)C1O)C(O)CO (stereo not given)	no
C#CC1(OC(C)=O)CCC2C3CC=C4C=C(OC(C)=O)CCC4(C)C3CCC21C (stereo not given)	no
CC[N+]1(C)CCC(O)(c2ccc(C)cc2)C(C(=O)c2ccc(C)cc2)C1 (stereo not given)	no
Cc1cn(C2CCC(CO)(CF)O2)c(=O)[nH]c1=O (stereo not given)	no
O=S(=O)(CCCCl)SCCCCl	no
O=C1c2sccc2C(=O)c2c(CO)csc21	no
O=[N+]([O-])/C=C/c1cn(CCCCCCCCCCCCn2cc(/C=C/[N+](=O)[O-])c3ccccc32)c2ccccc12	no
NC(CSCc1ccccc1)C(=O)O (stereo not given)	no
O=C1C(/N=N/c2ccc(-c3nc4ccccc4o3)cc2)NC(=S)N1c1ccccc1 (stereo not given)	no
CC[C@H](C)[C@H]1NC(=O)[C@@H](NC(=O)[C@@H](CC(C)C)N(C)C(=O)C2C=CCN2)[C@@H](C)OC(=O)[C@H](Cc2ccc(OC)cc2)N(C)C(=O)[C@@H]2CCCN2C(=O)[C@H](CC(C)C)NC(=O)[C@@H](C)C(=O)[C@H](C(C)C)OC(=O)C[C@@H]1O (stereo not given in full) (H-[ξΔPro][dNMeL]T[X37]LP[NMeY](Me); ester 3-C)	yes

Task: Just curious, what result did CN(C)CC(NC(NCS)C(=O)NCCNc1ccc(NCCNC(=O)C(NCS)NC(CN(C)C)OCCl)c2c1C(=O)c1c(O)ccc(O)c1C2=O)OCCl (stereo not given) get here?
Result: no

Task: Could you check what this test reported for O=c1c2cc(I)ccc2nc(SCc2n[nH]c(=S)o2)n1Cc1ccccc1 ?
Result: no

Task: Dear all, I need the recorded test outcome for OCCOCn1cc(Cn2ncc3c(SCc4ccccc4)ncnc32)nn1 , thank you.
Result: no

Task: How was O=C(Nc1ccc2nc(O)n[n+]([O-])c2c1)C(F)(F)F classified in this test?
Result: no

Task: Given COc1ccc(C2c3cc4c(cc3OC(NNC(N)=O)C2C)OCO4)cc1 (stereo not given) , state the outcome it received in this test.
Result: no

* * *

system: MOLT-4; experiment: NCI tumour cell line growth inhibition, 48 h
Calls of active or inactive are those of the source. Rule as the data show it: active = GI50 up to about 1.1 µM and inactive = higher.
Measured GI50 of individual entries

Study these solved cases before continuing.
compound	GI50
COc1cccc(N2C(=O)C3c4[nH]c5ccccc5c4C4c5ccccc5CCC4C3C2=O)c1 (stereo not given)	> 10 µM (inactive)
O=C(O)C(SC1=NC(=O)C2(NN1)c1ccccc1-c1ccccc12)SC1=NC(=O)C2(NN1)c1ccccc1-c1ccccc12	4.09 µM (inactive)
O=C(Cn1ccc(=O)[nH]c1=O)Nc1ccc(C(=O)O)c(O)c1	> 100 µM (inactive)
NC(=O)c1nnc2ccc(F)cc2c1N	> 100 µM (inactive)
CC[N+]1(C)CCC(O)(c2ccc(C)cc2)C(C(=O)c2ccc(C)cc2)C1 (stereo not given)	23.6 µM (inactive)

Task: Which measured GI50 value corresponds to O=C(Nc1ccc2nc(O)n[n+]([O-])c2c1)C(F)(F)F ?
Result: > 100 µM (inactive)

Task: State the recorded GI50 for this entry: Oc1ccc([Te]CCNCC[Te]c2ccc(O)cc2)cc1
Result: 4.49 µM (inactive)

Task: GI50 lookup needed for C[n+]1ccc(Nc2ccc(NC(=O)c3ccc(Nc4cc[n+](C)c5ccc([N+](=O)[O-])cc45)cc3[N+](=O)[O-])cc2)cc1 , thanks.
Result: 32.3 µM (inactive)

Task: If you can, please state the reported GI50 value of C/C(=N/NC(=S)N1CCCCC1)c1cccc(/C(C)=N\NC(=S)N2CCCCC2)n1 .
Result: 2.4 µM (inactive)

Task: Data request, read-out GI50, for COc1cc(C2C(Cl)C(=O)N2NC(=O)c2ccc(NC(C)=O)cc2)cc(OC)c1OC (stereo not given)
Result: > 100 µM (inactive)

* * *

test system: SN12C; experiment: NCI tumour cell line growth inhibition, 48 h
Calls of active or inactive are those of the source. Cut-off read from the data, not from the text of the source: active = GI50 up to about 1.1 µM and inactive = higher.
A correct response names exactly one class from True (active), False (inactive)

Recorded results for 3 molecules are shown here.
molecule	tested.system	label
CC1(C)OC2COC(c3n[nH]c4c(=O)[nH]c(=O)[nH]c34)C2O1 (centres undefined)	SN12C	False
COC(=O)/C=C(/OC)[C@H](C)[C@H](/C=C/c1csc(-c2csc(C(C)C)n2)n1)OC	SN12C	False
COc1cc2ccnc3c2c(c1OC)-c1coc(SC)c1-3	SN12C	False

Task: # outcome recorded in this test, key = CC(C)(C)CNC(=O)NCn1cc(-c2ccccc2)nn1
Result: False

Task: Field: outcome | Entry: NCCCCCS(=O)(=O)O
Result: False

Task: # outcome recorded in this test, key = CC(=O)O[C@H]1CC[C@@]2(C)C(=CC[C@H]3[C@@H]4C[C@H](N5CCN(C)CC5)[C@H](OC(C)=O)[C@@]4(C)CC[C@@H]32)C1
Result: False

Task: Identify the outcome logged in this assay for the molecule shown: COc1c(O)c2c(c3cc(C(=O)N4CCc5c4c(O)c(OC)c4[nH]c(C(=O)N6CC7CC78C6=CC(=O)c6[nH]cc(C)c68)cc54)[nH]c13)CCN2C(N)=O (centres undefined) [CC-1065]
Result: True

Task: What classification did O=[N+]([O-])/C=C(\CS(=O)(=O)c1ccccc1)c1ccc2c(c1)OCO2 end up with in this test?
Result: False

Task: Would you mind telling me which call this test gave CSC1(C(=O)O)C2CCC3C2CCC31 (centres undefined) ?
Result: False

* * *

tested on: HT-29; experiment: NCI tumour cell line growth inhibition, 48 h
Activity calls are given as the source filed them. Cut-off read from the data, not from the text of the source: active = GI50 up to about 1.1 µM and inactive = higher.
The following compounds are shown together with reported GI50 values.

Worked examples, 3 compounds total:
compound	test.result
N[C@H](COCc1ccccc1)c1ccccc1	28.8 µM (inactive)
CC1=NNC(=O)C1C1C(=O)NN=C(c2c[nH]c3ccccc23)C1Br (stereo unspecified)	35.3 µM (inactive)
O=C(Cn1ccc(=O)[nH]c1=O)Nc1ccc(C(=O)O)c(O)c1	> 100 µM (inactive)

Task: Given the entry NCCCCCS(=O)(=O)O , report its measured GI50.
Result: > 100 µM (inactive)

Task: I am curious: what GI50 value has been reported for C[Si](C)(C)/C=C/CCC(C=O)(CCCl)c1ccccc1 (stereo unspecified) ?
Result: 14.6 µM (inactive)

Task: For CC1(C)C(=O)/C=C\C(=O)C(C)(C)C2=CC=C(O2)C(C)(C)C(=O)/C=C\C(=O)C(C)(C)C2=CC=C1O2 , what is its reported GI50?
Result: > 100 µM (inactive)
